meta.source: paper PMC8584173

# Tested on: Thioredoxin-dependent peroxide reductase, mitochondrial (PRDX3_HUMAN)
# measurement notes: LC–MS proteome analysis, PRDX3
# Type: cell-based, Homo sapiens
# details: PC3, 24 h, IC50 concentration, % of control
# Description: Enzymes involved in oxidoreductive potential were analyzed in the cell lysates obtained after treatment cells with selected conjugates for 24 h. Cells were washed with phosphate-buffered saline (PBS) and harvested, then centrifuged at 1000× g for 10 min. […] Protein concentration was measured by the Bradford method. […] The collected spectra were analyzed and calibrated using DataAnalysis software (Bruker) and then identified in ProteinScape (Bruker) by the MASCOT server. […]
measurement kind: Protein Intensity, % (PRDX3)
Write down the value, and be sure its unit follows.

Give recorded Protein Intensity, % (PRDX3). `O=[N+]([O-])c1cc([N+]2=C(Nc3ccc(I)cc3)[S][Cu-2]23[S]C(Nc2ccc(I)cc2)=[N+]3c2ccc(Cl)c([N+](=O)[O-])c2)ccc1Cl` 24.8%

Could you please provide reported Protein Intensity, % (PRDX3) for `O=[N+]([O-])c1cc([N+]2=C(Nc3ccccc3F)[S][Cu-2]23[S]C(Nc2ccccc2F)=[N+]3c2ccc(Cl)c([N+](=O)[O-])c2)ccc1Cl` ? Thanks! 12.4%

// fetch Protein Intensity, % (PRDX3) given entry `O=[N+]([O-])c1cc([N+]2=C(Nc3ccccc3Br)[S][Cu-2]23[S]C(Nc2ccccc2Br)=[N+]3c2ccc(Cl)c([N+](=O)[O-])c2)ccc1Cl` 69.5%

Specify reported Protein Intensity, % (PRDX3) for the molecule shown: `O=[N+]([O-])c1cc([N+]2=C(Nc3ccc(Br)cc3)[S][Cu-2]23[S]C(Nc2ccc(Br)cc2)=[N+]3c2ccc(Cl)c([N+](=O)[O-])c2)ccc1Cl` 57.3%

###

# Tested on: S. aureus 522
# measurement notes: MIC, hospital MRSA strain
# Type: cell-based, Staphylococcus aureus
# details: hospital MRSA S. aureus 522
measurement kind: MIC (µg/mL)
// note: answer is a bare numeric in µg/mL

Identify the reported MIC for the following entry. `O=[N+]([O-])c1cc([N+]2=C(Nc3ccc(I)cc3)[S][Cu-2]23[S]C(Nc2ccc(I)cc2)=[N+]3c2ccc(Cl)c([N+](=O)[O-])c2)ccc1Cl` 4

Kindly indicate its recorded MIC. Item: `O=[N+]([O-])c1cc([N+]2=C(Nc3ccccc3Br)[S][Cu-2]23[S]C(Nc2ccccc2Br)=[N+]3c2ccc(Cl)c([N+](=O)[O-])c2)ccc1Cl` 8

Annotate the compound `O=[N+]([O-])c1cc([N+]2=C(Nc3ccc(Br)cc3)[S][Cu-2]23[S]C(Nc2ccc(Br)cc2)=[N+]3c2ccc(Cl)c([N+](=O)[O-])c2)ccc1Cl` with its measured MIC. 4

Return MIC (reported value) for this compound: `O=[N+]([O-])c1cc(NC2=[N+](c3ccc(Cl)c([N+](=O)[O-])c3)[Cu-2]3([S]2)[S]C(Nc2ccc(Cl)c([N+](=O)[O-])c2)=[N+]3c2ccc(Cl)c([N+](=O)[O-])c2)ccc1Cl` 32

Given the compound `O=[N+]([O-])c1cc([N+]2=C(Nc3ccc(F)c(Cl)c3)[S][Cu-2]23[S]C(Nc2ccc(F)c(Cl)c2)=[N+]3c2ccc(Cl)c([N+](=O)[O-])c2)ccc1Cl` , write its reported MIC. 4
